Give pIC50 for every item shown.
Tested on: MDA-MB-231
Test: Cytotoxicity against human MDA-MB-231 cells assessed as cell growth inhibition after 72 hrs by alamar blue assay
Assay type: functional, cell-based
Details: MDA-MB-231, 72 h
pIC50: −log10 of the molar value.

CCOc1cc(F)ccc1-c1ccc(-n2cc(-c3ccccc3)nn2)cc1    5.32
N#Cc1cncc(-c2ccn3ncnc3n2)c1    < 4.00
CCOc1cc(F)ccc1-c1ccn2ncnc2n1    4.30

Batch lookup, pIC50 per entry.
1. Fc1ccc(Cl)cc1-c1ccn2ncnc2n1
2. c1ccc(-c2ccn3ncnc3n2)cc1
3. COc1ccc(F)cc1-c1ccn2ncnc2n1
4. Clc1ccccc1-c1ccn2ncnc2n1
5. Clc1ccccc1-c1ccccc1-c1ccn2ncnc2n1
6. Fc1ccc(-c2ccn3ncnc3n2)cn1

-- reply
1: < 4.00; 2: < 4.00; 3: < 4.00; 4: < 4.00; 5: < 4.00; 6: < 4.00
